# melting point per record follows

CN(C)CCOc1ccc(C(=O)NN=Cc2ccc([N+](=O)[O-])cc2)cc1	96 to 100 °C

May I ask what melting point has been recorded for `CN(C)CCOc1ccc(C(=O)NN=Cc2ccccc2O)cc1` ?
149 to 153 °C

May I ask what melting point has been recorded for `CN(C)CCOc1ccc(C(=O)NN=Cc2cccc([N+](=O)[O-])c2)cc1` ?
125 to 130 °C

May I ask what melting point has been recorded for `CN(C)CCOc1ccc(C(=O)NN=Cc2ccc(O)cc2)cc1` ?
109 to 114 °C

====

# Tested on: MCF-7 cells
# experimentSummary: MTT cell proliferation assay, MCF-7
# Assay type: cell-based
# assaySetup: Homo sapiens, MCF7, 48 h, read-out: IC50, cell proliferation, MCF-7 cells
measurementName: IC50 (µM)
Number in µM, nothing else.

May I ask what IC50 has been recorded for `Cc1cc(C)c(C=NNC(=O)c2ccc(OCCN(C)C)cc2)c(C)c1` ?
34.4

====

# Test system: MCF-7 cells
# experimentSummary: MTT cell proliferation assay, MCF-7
# Type: cell-based
# assaySetup: Homo sapiens, MCF7; MTT, 48 h, 0–200 μM; read-out: IC50, cell proliferation, MCF-7 cells
measurementName: pIC50
Kindly note that pIC50 refers to -log10 of the concentration in mol/L and answer with the value alone.

May I ask what pIC50 has been recorded for CN(C)CCOc1ccc(C(=O)NN=Cc2ccc(Cl)cc2)cc1 [H4] ?
4.56
